- TEST_TARGET: glucokinase (GK) enzyme (Homo sapiens, UniProt P35557)
- EXPERIMENTAL_DETAILS: In-vitro glucokinase (GK) enzyme activation assay (coupled with glucose-6-phosphate dehydrogenase, absorbance at 340)
- Assay type: biochemical
- REPORTED_CONDITIONS: compound 5 uM; glucose 2.5 mM, ATP 1 mM; read-out: % of GK activity wrt DMSO
Provide the reported activity at 5 µM of each item.
Answers are plain numbers, in %.

Some solved cases for reference:
Cc1nnc(-c2ccc(Oc3cc(OCC4CCC5(CC5)C4)cc(C(=O)Nc4nccs4)c3)cc2)o1 (stereo not shown); 183
CCOC(=O)c1csc(NC(=O)c2cc(Oc3ccc(-c4nnc(C)o4)cc3)cc(OC(C)COC)c2)n1 (stereo not shown); 318
C=CCCOc1cc(Oc2ccc(-c3nnc(C)o3)cc2)cc(C(=O)Nc2ncc(C)s2)c1; 233

Answer for every listed entry: what is its activity at 5 µM? The entries follow.
1. CCc1nnc(-c2ccc(Oc3cc(OC(C)COC)cc(C(=O)Nc4nccs4)c3)cc2)o1 (stereo not shown)
2. COC[C@H](C)Oc1cc(Oc2ccc(-c3nnc(C)o3)cc2)cc(C(=O)Nc2ncc(C)s2)c1

(A)
1. 439
2. 191

Items follow; give activity at 5 µM for each.
1. COC[C@H](C)Oc1cc(Oc2ccc(-c3nnc(C)o3)cc2)cc(C(=O)Nc2ncc(C#N)s2)c1
2. C=CCOc1cc(Oc2ccc(-c3nnc(C)o3)cc2)cc(C(=O)Nc2nccs2)c1
3. C=CCOc1cc(Oc2ccc(-c3nnc(C)o3)cc2)cc(C(=O)Nc2ncc(C)s2)c1

(A)
[306, 324, 241]

For every listed record, write down its activity at 5 µM.
1. COCC(C)Oc1ccc(Oc2ccc(-c3nnc(C)o3)cc2)cc1C(=O)Nc1nccs1 (stereo not shown)
2. COCC(C)Oc1cc(Oc2ccc(-c3nnc(C)o3)cc2)cc(C(=O)Nc2nccs2)c1 (stereo not shown)

(A)
1. 110
2. 316

====

- TEST_TARGET: UniProt P35557
- EXPERIMENTAL_DETAILS: In-vitro glucokinase (GK) enzyme activation assay (coupled with glucose-6-phosphate dehydrogenase, absorbance at 340)
- Assay type: biochemical
- REPORTED_CONDITIONS: compound 0.1 uM; glucose 2.5 mM, ATP 1 mM; read-out: % of GK activity wrt DMSO
Classify by measured activity at 0.1 µM: 1.0 if it is equal to or exceeds 200%, 0.0 if it is smaller.

C=CCCOc1cc(Oc2ccc(-c3nnc(C)o3)cc2)cc(C(=O)Nc2nc(C)cs2)c1; 0.0
COC[C@H](C)Oc1cc(Oc2ccc(-c3nnc(C)o3)cc2)cc(C(=O)Nc2nc(C)cs2)c1; 1.0
COC(C)CCOc1cc(Oc2ccc(-c3nnc(C)o3)cc2)cc(C(=O)Nc2nccs2)c1 (centres unmarked); 0.0
COCC(C)Oc1cc(Oc2ccc(-c3nnc(C)o3)cc2)cc(C(=O)Nc2ncc(C)s2)c1 (centres unmarked); 1.0

(Q) Decide: activity at 0.1 µM of COCC(C)Oc1ccc(Oc2ccc(-c3nnc(C)o3)cc2)cc1C(=O)Nc1nccs1 (centres unmarked) >= 200%?
(A) 0.0

(Q) Same lookup for COCC(C)Oc1cc(Oc2ccc(-c3nnc(C4CC4)o3)cc2)cc(C(=O)Nc2nccs2)c1 (centres unmarked) , please.
(A) 1.0

(Q) Next molecule: COCC(C)Oc1cc(Oc2ccc(-c3nnc(C)o3)cc2)cc(C(=O)Nc2ncc(Br)s2)c1 (centres unmarked)
(A) 1.0

(Q) Also need COC[C@H](C)Oc1cc(Oc2ccc(-c3nnc(C)o3)cc2)cc(C(=O)Nc2nccs2)c1 , thanks.
(A) 1.0

(Q) Entry C=CCCOc1cc(Oc2ccc(-c3nnc(C)o3)cc2)cc(C(=O)Nc2nccs2)c1 please
(A) 0.0

(Q) Another molecule: C=CCOc1cc(Oc2ccc(-c3nnc(C)o3)cc2)cc(C(=O)Nc2nccs2)c1
(A) 1.0

(Q) Let us now turn to COCC(C)Oc1cc(Oc2ccc(-c3nnc(C)o3)cc2)cc(C(=O)Nc2ncc(C(=O)O)s2)c1 (centres unmarked)
(A) 0.0

(Q) Now give it for COC[C@H](C)Oc1cc(Oc2ccc(-c3nnc(C)o3)cc2)cc(C(=O)Nc2ncc(C#N)s2)c1 too.
(A) 0.0

(Q) Cool, now COCC(C)Oc1cc(Oc2ccc(-c3nnc(C)o3)cc2)cc(C(=O)Nc2nc(C(=O)O)cs2)c1 (centres unmarked)
(A) 0.0

(Q) Would you mind doing CCOC(=O)c1csc(NC(=O)c2cc(Oc3ccc(-c4nnc(C)o4)cc3)cc(OC(C)COC)c2)n1 (centres unmarked) as well?
(A) 0.0

(Q) Another: CCc1nnc(-c2ccc(Oc3cc(OC(C)COC)cc(C(=O)Nc4nccs4)c3)cc2)o1 (centres unmarked)
(A) 1.0

(Q) Try COC[C@@H](C)Oc1cc(Oc2ccc(-c3nnc(C)o3)cc2)cc(C(=O)Nc2nccs2)c1 next.
(A) 0.0

(Q) Please answer likewise for Cc1csc(NC(=O)c2cc(OCC3CCCCC3)cc(Oc3ccc(-c4nnc(C)o4)cc3)c2)n1
(A) 0.0

(Q) Then Cc1nnc(-c2ccc(Oc3cc(OC(C)C4CC4)cc(C(=O)Nc4nccs4)c3)cc2)o1 (centres unmarked) ?
(A) 1.0

(Q) Also need COC[C@H](C)Oc1cc(Oc2ccc(-c3nnc(C)o3)cc2)cc(C(=O)Nc2ncc(C)s2)c1 , thanks.
(A) 1.0

====

- TEST_TARGET: glucokinase (GK) enzyme (Homo sapiens, UniProt P35557)
- Sequence (P35557 1-465): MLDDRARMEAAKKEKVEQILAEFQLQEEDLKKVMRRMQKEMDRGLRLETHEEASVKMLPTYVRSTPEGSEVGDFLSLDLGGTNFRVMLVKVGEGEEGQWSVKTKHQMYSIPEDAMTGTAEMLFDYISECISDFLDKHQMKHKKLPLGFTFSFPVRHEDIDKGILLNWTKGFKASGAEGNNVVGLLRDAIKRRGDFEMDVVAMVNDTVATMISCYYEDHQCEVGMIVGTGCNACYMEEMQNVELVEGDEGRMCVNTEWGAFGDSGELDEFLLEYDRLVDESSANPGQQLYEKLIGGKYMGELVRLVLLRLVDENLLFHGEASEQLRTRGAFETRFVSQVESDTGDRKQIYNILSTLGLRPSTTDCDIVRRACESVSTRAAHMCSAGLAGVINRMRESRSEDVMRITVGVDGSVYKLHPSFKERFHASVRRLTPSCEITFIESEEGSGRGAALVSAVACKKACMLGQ
- EXPERIMENTAL_DETAILS: In-vitro glucokinase (GK) enzyme activation assay (coupled with glucose-6-phosphate dehydrogenase, absorbance at 340)
- Assay type: biochemical
- REPORTED_CONDITIONS: compound 10 uM; glucose 2.5 mM, ATP 1 mM; read-out: % of GK activity wrt DMSO
Entry flag: Yes if activity at 10 µM reaches 300%; No if it does not.

See these solved cases before continuing.
Cc1nnc(-c2ccc(Oc3cc(OCC4CCCCC4)cc(C(=O)Nc4nccs4)c3)cc2)o1; No
CCOC(=O)c1csc(NC(=O)c2cc(Oc3ccc(-c4nnc(C)o4)cc3)cc(OC(C)COC)c2)n1 (stereo not shown); Yes
COC(C)CCOc1cc(Oc2ccc(-c3nnc(C)o3)cc2)cc(C(=O)Nc2nccs2)c1 (stereo not shown); No
C=CCCOc1cc(Oc2ccc(-c3nnc(C)o3)cc2)cc(C(=O)Nc2nccs2)c1; No
COC[C@H](C)Oc1cc(Oc2ccc(-c3nnc(C)o3)cc2)cc(C(=O)Nc2ncc(C#N)s2)c1; Yes

(Q) Determine whether measured activity at 10 µM meets or exceeds 300% for CCOC(=O)Cc1csc(NC(=O)c2cc(Oc3ccc(-c4nnc(C)o4)cc3)cc(OC(C)COC)c2)n1 (stereo not shown)
(A) Yes

(Q) Next up: C=CCCOc1cc(Oc2ccc(-c3nnc(C)o3)cc2)cc(C(=O)Nc2ncc(C)s2)c1
(A) No

(Q) COCC(C)Oc1ccc(Oc2ccc(-c3nnc(C)o3)cc2)cc1C(=O)Nc1nccs1 (stereo not shown) , same question.
(A) No
